This collection of values is drawn from ChEMBL document CHEMBL5236599.

Molecular target: Peroxisome proliferator-activated receptor gamma (Homo sapiens)
Sequence (whole entry): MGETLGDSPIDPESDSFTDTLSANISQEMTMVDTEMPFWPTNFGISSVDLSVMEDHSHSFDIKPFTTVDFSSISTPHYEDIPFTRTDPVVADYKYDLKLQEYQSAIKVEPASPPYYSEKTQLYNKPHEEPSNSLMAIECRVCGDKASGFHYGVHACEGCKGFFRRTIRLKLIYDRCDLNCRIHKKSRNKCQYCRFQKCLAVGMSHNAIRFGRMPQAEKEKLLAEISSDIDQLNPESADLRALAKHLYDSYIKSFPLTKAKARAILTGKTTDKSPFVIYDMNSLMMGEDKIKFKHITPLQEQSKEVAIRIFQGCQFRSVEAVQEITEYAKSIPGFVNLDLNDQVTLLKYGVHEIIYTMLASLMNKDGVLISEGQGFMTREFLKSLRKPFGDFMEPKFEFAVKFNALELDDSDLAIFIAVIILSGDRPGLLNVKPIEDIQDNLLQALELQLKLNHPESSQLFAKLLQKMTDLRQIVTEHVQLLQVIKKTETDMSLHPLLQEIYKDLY
Assay: Antagonist activity at PPAR-gamma (unknown origin) transfected in human HEK293 cells assessed as decrease in rosiglitazone-induced receptor transactivation at 10 uM by dual-luciferase reporter gene assay relative to control
Assay type: cell-based
Details: filed as antagonist
parameter: inhibition (%)
Form entry: value (%) — number only.

Example entries and their recorded answers appear below.
COc1cc(O)c(C(=O)O)c(CC(=O)c2cccc(-c3ccc(F)cc3)c2)c1CC=C(C)C = 66
COc1ccc(-c2cccc(C(=O)Cc3c(CC=C(C)C)c(OC)cc(O)c3C(=O)O)c2)cc1 = 79.5
COc1cc(O)c(C(=O)O)c(CC(=O)c2cccc(-c3cncnc3)c2)c1CC=C(C)C = 55

// query Retrieve inhibition measured for COc1cc(O)c(C(=O)O)c(CC(=O)c2cccc(-c3ccccc3Cl)c2)c1CC=C(C)C and print it.
// result 96.2

// query Retrieve inhibition measured for CCc1ccc(-c2cccc(C(=O)Cc3c(CC=C(C)C)c(OC)cc(O)c3C(=O)O)c2)cc1 and print it.
// result 60.2

// query Retrieve inhibition measured for COc1ccc(-c2cccc(C(=O)Cc3c(CC=C(C)C)c(OC)cc(O)c3C(=O)O)c2)c(F)c1 and print it.
// result 84.7

// query Retrieve inhibition measured for COc1cc(O)c(C(=O)O)c(CC(=O)c2cccc(C3CC3)c2)c1CC=C(C)C and print it.
// result 81.2

// query Retrieve inhibition measured for COc1cc(O)c(C(=O)O)c(CC(=O)c2cccc(-c3ccc(C)cc3)c2)c1CC=C(C)C and print it.
// result 64.5

// query Retrieve inhibition measured for COc1cc(O)c(C(=O)O)c(CC(=O)c2cccc(-c3ccsc3)c2)c1CC=C(C)C and print it.
// result 43.7

// query Retrieve inhibition measured for COc1cc(O)c(C(=O)O)c(CC(=O)c2cccc(-c3cccnc3)c2)c1CC=C(C)C and print it.
// result 82.5

// query Retrieve inhibition measured for O=C(Nc1ccccc1)c1cc([N+](=O)[O-])ccc1Cl and print it.
// result 99.1

// query Retrieve inhibition measured for COc1cc(CC(=O)c2cccc(C3CC3)c2)c(C(=O)O)c(O)c1CC=C(C)C and print it.
// result 77.7

// query Retrieve inhibition measured for COc1cc(O)c(C(=O)O)c(CC(=O)c2cccc(-c3ccnc(Cl)c3)c2)c1CC=C(C)C and print it.
// result 92.3

// query Retrieve inhibition measured for COc1cc(O)c(C(=O)O)c(CC(=O)c2cccc(-c3ccc(Cl)cc3)c2)c1CC=C(C)C and print it.
// result 71

// query Retrieve inhibition measured for COc1cc(O)c(C(=O)O)c(CC(=O)c2cccc(-c3ccccc3C(F)(F)F)c2)c1CC=C(C)C and print it.
// result 80.1

// query Retrieve inhibition measured for COc1cc(CC(=O)c2cccc(-c3ccccc3Cl)c2)c(C(=O)O)c(O)c1CC=C(C)C and print it.
// result 57.5

// query Retrieve inhibition measured for COc1cc(CC(=O)c2cccc(-c3ccccc3C(F)(F)F)c2)c(C(=O)O)c(O)c1CC=C(C)C and print it.
// result 40.5

// query Retrieve inhibition measured for COc1cc(CC(=O)c2cccc(-c3ccsc3)c2)c(C(=O)O)c(O)c1CC=C(C)C and print it.
// result 47.7

// query Retrieve inhibition measured for COc1cc(CC(=O)c2cccc(-c3cccc(C(F)(F)F)c3)c2)c(C(=O)O)c(O)c1CC=C(C)C and print it.
// result 50.9
